# System name: Proteinase-activated receptor 1 (Homo sapiens, UniProt P25116)
# Sequence (P25116 whole entry): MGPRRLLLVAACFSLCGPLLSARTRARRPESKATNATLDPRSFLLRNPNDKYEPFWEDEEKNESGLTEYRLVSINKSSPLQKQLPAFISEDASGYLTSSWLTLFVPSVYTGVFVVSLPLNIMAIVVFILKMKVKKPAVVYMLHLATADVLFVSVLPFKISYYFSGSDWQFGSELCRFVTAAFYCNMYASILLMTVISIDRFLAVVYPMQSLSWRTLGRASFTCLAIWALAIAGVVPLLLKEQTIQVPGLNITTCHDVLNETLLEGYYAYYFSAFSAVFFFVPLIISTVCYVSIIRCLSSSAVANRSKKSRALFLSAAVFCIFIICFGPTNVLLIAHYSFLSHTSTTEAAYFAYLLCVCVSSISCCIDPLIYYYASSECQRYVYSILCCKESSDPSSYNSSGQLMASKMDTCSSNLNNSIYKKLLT
# Assay notes: Inhibition of [3H]S-(p-F-Phe)-Har-L-Har-KY-NH2 binding to thrombin receptor (PAR-1) on membranes from CHRF cells
# Type: cell membranes
Where a SMILES comes first, the peptide text is derived from it. [ ]: non-standard residue; d: D form. The star is where a group is joined. Cha = N[C@@H](CC1CCCCC1)C(=O)O; Nicotinoyl = O=C(c1cccnc1)*; 3Abz = Nc1cccc(C(=O)O)c1
Parameter: IC50 (µM)

Return IC50 for the following compound: "N=C(N)NCCC[C@H](NC(=O)[C@H](CC1CCCCC1)NC(=O)c1n[nH]c(N)n1)C(=O)N[C@@H](Cc1c[nH]cn1)C(N)=O"
27

Return IC50 for the following compound: "N=C(N)NCCC[C@H](NC(=O)[C@H](CC1CCCCC1)NC(=O)c1nccnc1N)C(=O)N[C@@H](Cc1ccccc1)C(N)=O"
8.5

Return IC50 for the following compound: "N=C(N)NCCC[C@H](NC(=O)[C@H](CC1CCCCC1)NC(=O)c1cc2ccccc2[nH]1)C(=O)N[C@@H](Cc1ccccc1)C(N)=O"
56

Return IC50 for the following compound: "CC(C)C[C@H](NC(=O)[C@H](CC(C)C)NC(=O)[C@H](Cc1ccccc1)NC(=O)[C@@H](N)CO)C(=O)N[C@@H](CCCN=C(N)N)C(=O)N[C@@H](CC(N)=O)C(N)=O"
0.55

Return IC50 for the following compound: "N=C(N)NCCC[C@H](NC(=O)[C@H](CC1CCCCC1)NC(=O)/C=C/c1cccnc1)C(=O)N[C@@H](Cc1ccccc1)C(N)=O"
5.5

Return IC50 for the following compound: "N=C(N)NCCC[C@H](NC(=O)[C@H](CC1CCCCC1)NC(=O)c1ccc[nH]1)C(=O)N[C@@H](Cc1ccccc1)C(N)=O"
10

A. N=C(N)NCCC[C@H](NC(=O)[C@H](CC1CCCCC1)NC(=O)c1ccccn1)C(=O)N[C@@H](Cc1ccccc1)C(N)=O
B. N=C(N)NCCC[C@H](NC(=O)[C@H](CC1CCCCC1)NC(=O)c1cccc(N)c1)C(=O)N[C@@H](Cc1ccccc1)C(N)=O (H-[3Abz][Cha]RF-NH2)
C. N=C(N)NCCC[C@H](NC(=O)[C@H](CC1CCCCC1)NC(=O)c1csnn1)C(=O)N[C@@H](Cc1ccccc1)C(N)=O
D. N=C(N)NCCC[C@H](NC(=O)[C@H](CC1CCCCC1)NC(=O)C1=COc2ccccc2O1)C(=O)N[C@@H](Cc1ccccc1)C(N)=O
E. N=C(N)NCCC[C@H](NC(=O)[C@H](CC1CCCCC1)NC(=O)c1cccnc1)C(=O)N[C@@H](Cc1ccccc1)C(N)=O (Nicotinoyl-[Cha]-Arg-Phe-NH2)
Descending sort on IC50 required. Please list the labels according to the requested order.
D, C, A, B, E
(D: 16 µM, C: 9.4 µM, A: 4.4 µM, B: 2 µM, E: 1.3 µM)
